Measured polymerase ribozyme fitness (log ratio) values are reported for all entries that follow.
B1: TPR t1 (parent)
chain: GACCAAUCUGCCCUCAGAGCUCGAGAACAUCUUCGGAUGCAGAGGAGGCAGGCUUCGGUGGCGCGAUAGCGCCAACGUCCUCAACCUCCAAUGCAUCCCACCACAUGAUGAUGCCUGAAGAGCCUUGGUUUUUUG

Variants of: B1
Assay: polymerase ribozyme fitness, log enrichment relative to wild type (log ratio); higher = more active; in vitro selection for triplet polymerase activity
Would you mind answering with just the numeric figure?

Recorded polymerase ribozyme fitness (log ratio), per entry:
G63A G93U C98U A121G: -0.418
A5U C64U C80A C88U A95U: -4.14

IN: Suppose we examine the variant G48A G69C ; what polymerase ribozyme fitness (log ratio) value has been reported?
OUT: -1.33

IN: Suppose we examine the variant C53A G71A C85A G135U ; what polymerase ribozyme fitness (log ratio) value has been reported?
OUT: -4.02

IN: Suppose we examine the variant C15U G39U G52A ; what polymerase ribozyme fitness (log ratio) value has been reported?
OUT: -3.14
